Ref: the supplement of paper PMC6607015

Tested on: A431
Experiment: filipin (cholesterol) integrated intensity within LBPA endosomes, Z-score; higher = more cholesterol in LBPA endosomes
Details: compound concentration in added solution (µM; 5 µl added to 20 µl cells): 10; 18 h
Where a name gives a salt, the structure may show the parent alone.
# if value of filipin (z-score) reaches -0.4, tag Y; if it stays below, tag N

- molecule: "NC(=O)c1cccnc1 [Nicotinamide]"
  qualitative_label: "N"
- molecule: "COc1ccc2[nH]c([S+]([O-])Cc3ncc(C)c(OC)c3C)nc2c1 (centres undefined)"
  qualitative_label: "N"
- molecule: "CN1CCN(CCCN2c3ccccc3Sc3ccc(S(=O)(=O)N(C)C)cc32)CC1 [Thioproperazine dimesylate]"
  qualitative_label: "Y"
- molecule: "CCCCN(CCCC)CCCOC(=O)c1ccc(N)cc1"
  qualitative_label: "Y"
- molecule: "O=c1[nH]c(=O)n([C@H]2C[C@H](O)[C@@H](CO)O2)cc1I"
  qualitative_label: "N"
- molecule: "COC1=CC(=O)C[C@@H](C)[C@]12Oc1c(Cl)c(OC)cc(OC)c1C2=O"
  qualitative_label: "N"
- molecule: "O=C(Nc1ccccc1)OCC(CN1CCCCC1)OC(=O)Nc1ccccc1 (centres undefined) [Diperodon hydrochloride]"
  qualitative_label: "Y"
- molecule: "CCCC(=O)Nc1ccc(OCC(O)CNC(C)C)c(C(C)=O)c1 (centres undefined) [Acebutolol hydrochloride]"
  qualitative_label: "N"
- molecule: "CCC(C)n1ncn(-c2ccc(N3CCN(c4ccc(OCC5COC(Cn6cncn6)(c6ccc(Cl)cc6Cl)O5)cc4)CC3)cc2)c1=O (centres undefined)"
  qualitative_label: "Y"
